Sourced from patent US6632456B1

RUN_DESCRIPTION: Enhancement of insulin uptake after powder inhalation in a rat model (blood glucose)
Format: in vivo, rats
EXPERIMENTAL_CONTEXT: rat model of Example 2, substance tested as enhancer
READOUT_TYPE: enhancement of polypeptide (insulin) absorption in the lung

molecule="CCCCCCCCCC(=O)[O-].[Na+] [Sodium caprate]" assay_value="perform well"
molecule="CCCCCCCCCCCC(=O)[O-].[Na+] [Sodium laurate]" assay_value="perform well"
